Reference source: patent US20050009820A1

Each item that follows carries a reported melting point.
measurementLabel: melting point (°C)

[
  {
    "compound": "CC1(C)CCc2c(sc3cc(OS(=O)(=O)Cc4ccccc4OC(F)(F)F)ccc3c2=O)C1",
    "measuredValue": 249
  },
  {
    "compound": "CC(C)S(=O)(=O)Nc1ccc2c(=O)c3c(sc2c1)CC(C)(C)CC3",
    "measuredValue": 263
  },
  {
    "compound": "CCC1CCc2c(sc3cc(-n4cccc4)ccc3c2=O)C1 (stereo not shown)",
    "measuredValue": 145
  },
  {
    "compound": "Cc1ccc(S(=O)(=O)Nc2ccc3c(=O)c4c(sc3c2)CC(C)(C)CC4)cc1",
    "measuredValue": 279
  },
  {
    "compound": "CC1(C)CCc2c(sc3cc(NS(=O)(=O)c4ccccc4)ccc3c2=O)C1",
    "measuredValue": 231
  },
  {
    "compound": "CC1(C)CCc2c(sc3cc(-n4cccc4)ccc3c2=O)C1",
    "measuredValue": 169
  },
  {
    "compound": "CC1(C)CCc2c(sc3cc(NS(C)(=O)=O)ccc3c2=O)C1",
    "measuredValue": 272
  }
]
